# Tested on: lacZ under control of the tetA promoter (PtetA) in E. coli KM3
# Type: cell-based
# Condition summary: Table 4; rimsulfuron 20 ppm; 48 hrs at 30° C.
Readout: relative β-galactosidase activity, inducer Rs

Query: Item under review: L1-44: SU-responsive TetR(B) variant, library L1 hit, SEQ ID NO: 13 (protein, Sulfonylurea responsive repressor L1-44) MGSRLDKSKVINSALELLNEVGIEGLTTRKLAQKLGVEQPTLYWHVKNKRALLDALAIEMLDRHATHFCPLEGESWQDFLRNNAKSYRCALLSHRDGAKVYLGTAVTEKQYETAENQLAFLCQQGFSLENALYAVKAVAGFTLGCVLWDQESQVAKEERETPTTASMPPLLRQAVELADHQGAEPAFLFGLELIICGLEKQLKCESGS . Reported relative β-galactosidase activity, inducer Rs?
Response: 0.3
